# assay procedure: Ex vivo biodistribution in normal mice
# Parameters: species or system ddY mice
# measurement setup: i.v., 2 min after injection, mean (SD), 5 animals
recorded endpoint: Biodistribution of radioactivity, Pancreas

Examples with answers:
CN(C)c1ccc(-c2nc3ccc(C4=N[O][99Tc-]5(=[O])([NH]4)[NH2+]C(c4ccc6nc(-c7ccc(N(C)C)cc7)sc6c4)=N[O]5)cc3s2)cc1 [[^99mTc]BT2B]	2.81 (0.35) % injected dose per gram
CN(C)c1ccc(/C=C/c2ccc(C3=N[O][99Tc-]4(=[O])([NH]C(c5ccc(N(C)C)cc5)=N[O]4)[NH2+]3)cc2)cc1 (single isomer, unassigned) [[^99mTc]SB1A]	4.12 (0.62) % injected dose per gram
CN(C)c1ccc(C2=N[O][99Tc-]3(=[O])([NH]2)[NH2+]C(c2ccc4nc(-c5ccc(N(C)C)cc5)sc4c2)=N[O]3)cc1 [[^99mTc]BT1B]	1.80 (0.28) % injected dose per gram

// switching to the query molecule
Entry CN(C)c1ccc(/C=C/c2ccc(C3=N[O][99Tc-]4(=[O])([NH]3)[NH2+]C(c3ccc(/C=C/c5ccc(N(C)C)cc5)cc3)=N[O]4)cc2)cc1 (single isomer, unassigned) [[^99mTc]SB2A] , Biodistribution of radioactivity, Pancreas reported as 3.35 (0.60) % injected dose per gram
